# SYSTEM_TESTED: human CLEC12A expressed on cells (human) (UniProt Q5QGZ9)
# Sequence (Q5QGZ9 whole entry): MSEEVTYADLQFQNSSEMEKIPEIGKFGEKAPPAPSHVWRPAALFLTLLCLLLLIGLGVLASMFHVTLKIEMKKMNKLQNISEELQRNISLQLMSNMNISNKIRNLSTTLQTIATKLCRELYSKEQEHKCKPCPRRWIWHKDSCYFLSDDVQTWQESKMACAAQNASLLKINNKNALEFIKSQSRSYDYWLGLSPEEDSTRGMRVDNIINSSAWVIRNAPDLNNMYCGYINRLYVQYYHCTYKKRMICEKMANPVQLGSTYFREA
# METHOD_NOTES: flow cytometry, HL60 cells
OBSERVED_PROPERTY: pEC50
Please treat pEC50 as minus the base-10 logarithm of the molar concentration.

[ask] Can you share its pEC50? I mean this binder: AB0191 (bispecific antibody, part only; not given: Fc, unrelated binder arm, linkers, not shown: another chain or arm of the molecule; a dimerising Fc or GST; small tags and cut ends) scFv: EVQLVESGGGVVQPGGSLRLSCAASGFTFNSFGMHWVRQAPGKCLEWVAFISSGSTSIYYANTVKGRFTISRDNSKNTLYLQMNSLRAEDTAVYYCARDGYPTGGAMDYWGQGTSVTVSSGGGGSGGGGSGGGGSGGGGSDIQMTQSPSSLSASVGDRVTITCKASQDIYNYLSWFQQKPGKAPKPLIYRANILVSGVPSRFSGSGSGQDYTFTISSLQPEDIATYYCLQFDAFPFTFGCGTKLEIK
[reply] 9.22
